test details: recombinant UMI read abundance after kanamycin selection (control-corrected) (log10(CPM+1)); higher = more efficient recombination; extreme values may be limits of the assay; sequences stand for … in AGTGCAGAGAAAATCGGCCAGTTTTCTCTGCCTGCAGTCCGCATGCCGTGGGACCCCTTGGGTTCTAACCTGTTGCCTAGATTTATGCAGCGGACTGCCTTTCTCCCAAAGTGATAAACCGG…AGGTTGGTTTCACT; site = the 11-nt donor;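 further: IS621 bridge recombinase in Escherichia coli cells against a fixed T5 target plasmid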
value kind: recombinant UMI read abundance (log10)

>>> df
                              residue_codes    value
0  AGAGTATCATGGACCGGTTTTCCCGGTAATCCGTATTTGCA (site ACAGTATCTTG)      2.7
1  GAGTATCCATGGACCGGTTTTCCCGGTAATCCGTATTTGCT (site GATTATCCTAG)        0
2  CACTTGGCATGGACCGGTTTTCCCGGTAATCCGTATTTGGA (site CACTTTGCTTC)  0.00347
3  GAGACTCCATGGACCGGTTTTCCCGGTAATCCGTATTTGTA (site GAGACTCCTTA)    0.807
4  GACAATCCATGGACCGGTTTTCCCGGTAATCCGTATTTGAA (site GCCAATCCTTT)        0
5  TCCAGTGCATGGACCGGTTTTCCCGGTAATCCGTATTTGGT (site TCCAGTGCTAC)  0.00561
6  AGACATGCATGGACCGGTTTTCCCGGTAATCCGTATTTGCC (site AGACATGCTGG)     3.01
7  TACTTAACATGGACCGGTTTTCCCGGTAATCCGTATTTGCT (site TACTTTACTAG)        0
8  TCAGTTCCATGGACCGGTTTTCCCGGTAATCCGTATTTGAA (site TCAGTTCCTTT)    0.398
